Values from patent US20180116993A1

Target: full-length FXR (Homo sapiens)
Construct: The cells were co-transfected with plasmids encoding full-length FXR and the cognate luciferase reporter EcRE-Luc; expressed in transfected cells; host or cells: COS-7
Test: Cell-based FXR transactivation, EcRE luciferase reporter in COS-7 cells
Conditions: EcRE luciferase reporter, Table 2
pEC50: −log10 of the molar value.
Listing: pEC50 of selected compounds

Some solved cases for reference:
Cc1cc(C(=O)OC2CC3CCC2(C)C3(C)C)ccc1F (stereo not shown) = 5.00 to 6.00
CC1(C)C2CCC1(C)C(OC(=O)C1CCC(O)CC1)C2 (stereo not shown) = 5.00 to 6.00
O=C(OC1CCC2CCCCC2C1)c1ccc(F)cc1 (stereo not shown) = 5.00 to 6.00
CC1(C)C2CCC1(C)C(OC(=O)c1ccc(=O)[nH]c1)C2 (stereo not shown) = 5.00 to 6.00
CC1(C)C2CCC1(C)C(OC(=O)c1ccc([N+](=O)[O-])cc1)C2 (stereo not shown) = 5.00 to 6.00
CC1(C)C2CCC1(C)C(OC(=O)c1ccc(F)cc1)C2 (stereo not shown) = 5.00 to 6.00
Nc1ccc(C(=O)OC2CC3CCC2C3)cc1 (stereo not shown) = < 6.00
Cc1cc(C(=O)OC2CC3CCC2(C)C3(C)C)ccc1N (stereo not shown) = > 6.00
O=C(OC1CCCCCCCCCCC1)c1ccc(O)cc1 [XD-11, cyclododecyl 4-hydroxybenzoate] = 5.00 to 6.00

Okay, now this compound:
In: Form field: reported pEC50 of CC1(C)C2CCC1(C)C(OC(=O)c1ccc(F)c(Br)c1)C2 (stereo not shown)
Out: > 6.00

* * *

Target: FXR ligand binding domain (LBD) (Homo sapiens)
Construct: made in house
Assay: AlphaScreen assay: FXR LBD recruitment of coregulator peptide motifs (SRC2-3, SRC1-2)
Assay type: biochemical
Settings: SRC1-2 peptide; Table 2; read-out: EC50 (μM) of FXR binding by AlphaScreen assay recruit SRC1-2
// reported EC50 per item

Below, each entry is followed by its recorded EC50 result.
CC1(C)C2CCC1(C)C(OC(=O)c1ccc(F)c(Br)c1)C2 (stereo not shown) = < 1 µM
O=C(OC1CCCCCCCCCCC1)c1ccc(O)cc1 [XD-11, cyclododecyl 4-hydroxybenzoate] = 1 to 10 µM
Cc1cc(C(=O)OC2CCC3CCCCC3C2)ccc1N (stereo not shown) = < 1 µM
O=C(OC1CCC2CCCCC2C1)c1ccc(O)cc1 (stereo not shown) = < 0.5 µM
Nc1ccc(C(=O)OC2CCCCCC2)cc1 [XD-12, cycloheptyl 4-aminobenzoate] = > 10 µM

In: Form field: reported EC50 of COc1cc(C(=O)OC2CC3CCC2(C)C3(C)C)ccc1F (stereo not shown)
Out: 1 to 10 µM

In: And then COc1cc(C(=O)OC2CCC3CCCCC3C2)ccc1O (stereo not shown) , what is it?
Out: < 0.5 µM

In: Now consider CC1(C)C2CCC1(C)C(OC(=O)c1ccc(N)cc1)C2 (stereo not shown) and answer again.
Out: < 1 µM

In: Same for Nc1ccc(C(=O)OC2CC3CCC2C3)cc1 (stereo not shown)
Out: 1 to 10 µM

In: What about COc1cc(C(=O)OC2CCC3CCCCC3C2)ccc1N (stereo not shown) ?
Out: < 1 µM

* * *

Molecular target: FXR ligand binding domain (LBD) (Homo sapiens, UniProt Q96RI1)
Construct: made in house
Assay: AlphaScreen assay: FXR LBD recruitment of coregulator peptide motifs (SRC2-3, SRC1-2)
Format: biochemical
Settings: SRC1-2 peptide; Table 2; read-out: EC50 (μM) of FXR binding by AlphaScreen assay recruit SRC1-2
observed-property: EC50

The following molecules have reported results that may help.
COc1cc(C(=O)OC2CCCCCCC2)ccc1O [XD-18, cyclooctyl 4-hydroxy-3-methoxybenzoate] = < 1 µM
Nc1ccc(C(=O)OC2CCCCCCC2)cc1 [XD-16, cyclooctyl 4-aminobenzoate] = < 1 µM
O=C(OC1CCC2CCCCC2C1)c1ccc(F)cc1 (stereo not shown) = < 1 µM

Consider the record given below.
In: What value of measured EC50 is listed for CC1(C)C2CCC1(C)C(OC(=O)c1ccc(=O)[nH]c1)C2 (stereo not shown) ?
Out: 1 to 10 µM

* * *

Biological target: full-length FXR (Homo sapiens)
Construct: The cells were co-transfected with plasmids encoding full-length FXR and the cognate luciferase reporter EcRE-Luc; expressed in transfected cells; host or cells: COS-7
Test: Cell-based FXR transactivation, EcRE luciferase reporter in COS-7 cells
Conditions: 5 μM compound, positive: induction, minus: repression, Table 2
Procedure: COS-7 cells were cotransfected with plasmids encoding full length FXR. For transient transfection assay, COS-7 cells were maintained in DMEM containing 10% fetal bovine serum and were transiently transfected using Lipofectamine 2000 (Invitrogen). Before 24 h of transfection, 24-well plates were plated. The cells were co-transfected with plasmids encoding full-length FXR and the cognate luciferase reporter EcRE-Luc. Ligands were added 5 hours after transfection. […]
Assign rule met whenever Cell-based FXR transactivation Fold changes by 5 μM compound does not fall below 3; assign rule not met whenever it does.

CC1(C)C2CCC1(C)C(OC(=O)c1ccncc1)C2 (stereo not shown) [XD-6] = rule met

In: Could you verify whether the entry O=C(OC1CCCCCCC1)c1ccc([N+](=O)[O-])cc1 [XD-24, cyclooctyl 4-nitrobenzoate] shows Cell-based FXR transactivation Fold changes by 5 μM compound of no less than 3?
Out: rule not met

In: Moving on to O=C(OC1CCCCCCC1)C1CCC(O)CC1 (stereo not shown) [XD-19]
Out: rule not met

* * *

Below is a list of entries, each paired with its recorded viability at 20 µM value.
System: human cervical carcinoma Hela cells
Test: MTT cell viability assay, Hela
Assay type: cell-based
Settings: 20 uM, 48 h, read-out: Cell viability as a percentage of the cells treated with DMSO, Hela
Your answer is read as %, so omit the unit and give the number.

Would you please look over these solved cases?
CC1(C)C2CCC1(C)C(OC(=O)c1ccncc1)C2 (stereo not shown) = 100
CC1(C)C2CCC1(C)C(OC(=O)C1CCC(O)CC1)C2 (stereo not shown) = 100
Cc1cc(C(=O)OC2CCC3CCCCC3C2)ccc1F (stereo not shown) = 98

In: Which viability at 20 µM is listed for COc1cc(C(=O)OC2C/C(C)=C/CC/C(C)=C/[C@@H](O)[C@H]2C(C)C)ccc1O (stereo partly shown) ?
Out: 96

* * *

Recorded measurements of EC50, one per entry
Target: full-length FXR (Homo sapiens)
Construct: The cells were co-transfected with plasmids encoding full-length FXR and the cognate luciferase reporter EcRE-Luc; expressed in transfected cells; host or cells: COS-7
Sequence (Q96RI1 1-486): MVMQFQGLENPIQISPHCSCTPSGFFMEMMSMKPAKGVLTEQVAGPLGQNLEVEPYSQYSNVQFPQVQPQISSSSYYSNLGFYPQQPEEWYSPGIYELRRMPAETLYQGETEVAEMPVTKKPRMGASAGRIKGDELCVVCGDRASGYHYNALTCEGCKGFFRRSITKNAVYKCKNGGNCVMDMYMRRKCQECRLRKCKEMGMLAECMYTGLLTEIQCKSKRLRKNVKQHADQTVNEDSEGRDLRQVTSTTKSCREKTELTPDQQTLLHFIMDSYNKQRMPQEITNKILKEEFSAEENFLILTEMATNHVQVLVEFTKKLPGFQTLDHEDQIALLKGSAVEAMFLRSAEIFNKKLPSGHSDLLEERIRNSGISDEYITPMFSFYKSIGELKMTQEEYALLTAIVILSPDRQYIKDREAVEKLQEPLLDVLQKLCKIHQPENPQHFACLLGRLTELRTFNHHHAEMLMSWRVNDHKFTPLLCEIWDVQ
Assay: Cell-based FXR transactivation, EcRE luciferase reporter in COS-7 cells
Conditions: EcRE luciferase reporter, Table 1

Before answering, review these 2 worked examples.
COc1ccc(OC(=O)C23CC4CC(CC(Cl)(C4)C2)C3)cc1 = < 1 µM
COc1cc(C(=O)OC2C/C(C)=C/CC/C(C)=C/[C@@H](O)[C@H]2C(C)C)ccc1O (stereo partly drawn) [Tschimganidine] = < 1 µM

Okay, now this molecule:
In: Please look up its EC50: O=C(OC1CCCCCCC1)c1ccc(O)cc1 [XD-10, cyclooctyl 4-hydroxybenzoate]
Out: < 1 µM

* * *

This listing pairs molecules with measured EC50.
Molecular target: FXR ligand binding domain (LBD) (Homo sapiens)
Construct: made in house
Experiment: AlphaScreen assay: FXR LBD recruitment of coregulator peptide motifs (SRC2-3, SRC1-2)
Assay type: biochemical
Details: SRC2-3 peptide; Table 2; read-out: EC50 (μM) of FXR binding by AlphaScreen assay recruit SRC2-3

In: Entry under review: CC1(C)C2CCC1(C)C(OC(=O)c1ccc(=O)[nH]c1)C2 (stereo not shown) . Reported EC50?
Out: 1 to 10 µM

In: Same thing, different molecule: Nc1ccc(C(=O)OC2CCCCCCC2)cc1 [XD-16, cyclooctyl 4-aminobenzoate]
Out: < 1 µM

In: Repeat for the following molecule: O=C(OC1CCCCCCCCCCC1)c1ccc(O)cc1 [XD-11, cyclododecyl 4-hydroxybenzoate]
Out: 1 to 10 µM

In: COc1cc(C(=O)OC2CCC3CCCCC3C2)ccc1N (stereo not shown) ?
Out: < 1 µM

In: Please give the result for Cc1cc(C(=O)OC2CCC3CCCCC3C2)ccc1O (stereo not shown) too.
Out: < 0.5 µM
